Numbers sourced from ChEMBL document CHEMBL1140122.

Tested on: Trypanosoma cruzi
Experiment: Antitrypanosomal activity against Trypanosoma cruzi Tulahuen C4 in african green monkey Vero cells after 120 hrs
Type: functional, organism-based
pIC50: −log10 of the molar value.
Known pIC50 of a selection of molecules

structure.notation: C=CCOc1cc(OC)c(C(=O)/C=C/c2ccc(O)c(OC)c2)c(OCC=C)c1
test.value: < 4.60

structure.notation: COc1cc(O)c(C(=O)CCc2ccc3c(c2)OCO3)c(OC)c1
test.value: < 4.00

structure.notation: C=CCOc1cc(OC)c(C(=O)/C=C/C=C/c2ccccc2)c(OCC=C)c1
test.value: < 4.60

Now consider the entry below.
Name the recorded pIC50 for C=CCOc1cc(OC)c(C(=O)/C=C/c2ccc[nH]2)c(OCC=C)c1 .
< 4.00
